Target: Caspase-3 (Homo sapiens) (UniProt P42574)
Sequence (P42574 29-175 limits assumed): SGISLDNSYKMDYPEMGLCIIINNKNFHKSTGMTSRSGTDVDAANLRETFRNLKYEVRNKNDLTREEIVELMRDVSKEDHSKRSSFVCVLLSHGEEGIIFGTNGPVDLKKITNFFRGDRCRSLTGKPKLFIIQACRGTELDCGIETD
Sequence (P42574 176-277 limits assumed): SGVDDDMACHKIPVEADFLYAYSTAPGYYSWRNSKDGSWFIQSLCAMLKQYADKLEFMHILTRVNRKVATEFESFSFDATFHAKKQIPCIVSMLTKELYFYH
Experiment: Inhibition of recombinant CPP32 (unknown origin) assessed as ratio of irreversible rate constant K3 to dissociation constant of the reversible binding step Ki pre-incubated for 60 mins with Acetyl-Tyr-Val-Ala-Asp-amino-4-methylcoumarin substrate followed by enzyme addition by fluorescence based assay
Reported Ratio values are given for each entry in this list.

- Input Smiles: "C[C@H](NC(=O)C(=O)NC12CC3CC(CC(C3)C1)C2)C(=O)N[C@@H](CC(=O)O)C(=O)COC(=O)c1c(Cl)cccc1Cl"
  Ratio: "20500 to 165000 M⁻¹ s⁻¹"
- Input Smiles: "C[C@H](NC(=O)C(=O)Nc1cccc2c1CCCC2)C(=O)N[C@@H](CC(=O)O)C(=O)COP(=O)(c1ccccc1)c1ccccc1"
  Ratio: "139000 to 157000 M⁻¹ s⁻¹"
- Input Smiles: "C[C@H](NC(=O)C(=O)Nc1ccccc1I)C(=O)N[C@@H](CC(=O)O)C(=O)COC(=O)c1c(Cl)cccc1Cl"
  Ratio: "67600 to 942000 M⁻¹ s⁻¹"

---

Molecular target: Caspase-6 (Homo sapiens) (UniProt P55212)
Sequence (P55212 24-179 limits assumed): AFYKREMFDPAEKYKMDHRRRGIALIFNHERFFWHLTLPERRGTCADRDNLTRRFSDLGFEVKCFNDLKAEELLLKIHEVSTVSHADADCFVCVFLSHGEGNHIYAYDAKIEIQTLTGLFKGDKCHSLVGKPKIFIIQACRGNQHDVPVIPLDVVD
Sequence (P55212 194-293 limits assumed): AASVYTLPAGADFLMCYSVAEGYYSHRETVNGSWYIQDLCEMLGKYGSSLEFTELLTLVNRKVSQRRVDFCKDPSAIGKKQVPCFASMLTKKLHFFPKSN
Assay: Inhibition of recombinant MCH2 (unknown origin) assessed as ratio of irreversible rate constant K3 to dissociation constant of the reversible binding step Ki pre-incubated for 60 mins with Acetyl-Tyr-Val-Ala-Asp-amino-4-methylcoumarin substrate followed by enzyme addition by fluorescence based assay
Measured Endpoint: Ratio

- Molecule: "CC(C)[C@H](NC(=O)C(=O)Nc1cccc2ccccc12)C(=O)N[C@@H](CC(=O)O)C(=O)COC(=O)c1c(Cl)cccc1Cl"
  Measured Endpoint: "Ratio"
  Test Value: "234000 M⁻¹ s⁻¹"
- Molecule: "CC(C)[C@H](NC(=O)C(=O)Nc1cccc2ccccc12)C(=O)NC(CC(=O)O)C(=O)CF (mixture of isomers)"
  Measured Endpoint: "Ratio"
  Test Value: "199000 M⁻¹ s⁻¹"
- Molecule: "C[C@H](NC(=O)C(=O)Nc1ccccc1I)C(=O)N[C@@H](CC(=O)O)C(=O)COP(=O)(c1ccccc1)c1ccccc1"
  Measured Endpoint: "Ratio"
  Test Value: "66200 M⁻¹ s⁻¹"
- Molecule: "C[C@H](NC(=O)C(=O)Nc1ccccc1F)C(=O)N[C@@H](CC(=O)O)C(=O)COc1c(F)c(F)cc(F)c1F"
  Measured Endpoint: "Ratio"
  Test Value: "212000 M⁻¹ s⁻¹"
- Molecule: "CC(C)[C@H](NC(=O)C(=O)Nc1ccccc1-c1ccccc1)C(=O)N[C@@H](CC(=O)O)C(=O)COc1c(F)c(F)cc(F)c1F"
  Measured Endpoint: "Ratio"
  Test Value: "31700 M⁻¹ s⁻¹"
- Molecule: "CC(C)[C@H](NC(=O)C(=O)Nc1ccccc1C(C)(C)C)C(=O)N[C@@H](CC(=O)O)C(=O)COc1c(F)c(F)cc(F)c1F"
  Measured Endpoint: "Ratio"
  Test Value: "112000 M⁻¹ s⁻¹"
- Molecule: "C[C@H](NC(=O)C(=O)NC1CCCCC1)C(=O)N[C@@H](CC(=O)O)C(=O)COP(=O)(c1ccccc1)c1ccccc1"
  Measured Endpoint: "Ratio"
  Test Value: "97500 M⁻¹ s⁻¹"
- Molecule: "C[C@H](NC(=O)C(=O)Nc1ccc(F)cc1)C(=O)N[C@@H](CC(=O)O)C(=O)COP(=O)(c1ccccc1)c1ccccc1"
  Measured Endpoint: "Ratio"
  Test Value: "424000 M⁻¹ s⁻¹"
- Molecule: "CCCOc1ccc(OCC(=O)[C@H](CC(=O)O)NC(=O)[C@@H](NC(=O)C(=O)Nc2cccc3ccccc23)C(C)C)cc1"
  Measured Endpoint: "Ratio"
  Test Value: "63000 M⁻¹ s⁻¹"

---

Molecular target: Caspase-3 (Homo sapiens)
Experiment: Inhibition of recombinant CPP32 (unknown origin) assessed as ratio of irreversible rate constant K3 to dissociation constant of the reversible binding step Ki pre-incubated for 60 mins with Acetyl-Tyr-Val-Ala-Asp-amino-4-methylcoumarin substrate followed by enzyme addition by fluorescence based assay

- Input Smiles: "C[C@H](NC(=O)C(=O)Nc1ccccc1F)C(=O)N[C@@H](CC(=O)O)C(=O)COC(=O)c1c(Cl)cccc1Cl"
  Experimental System: "Caspase-3 (Homo sapiens)"
  Ratio: "68900 M⁻¹ s⁻¹"
- Input Smiles: "C[C@H](NC(=O)C(=O)NC12CC3CC(CC(C3)C1)C2)C(=O)N[C@@H](CC(=O)O)C(=O)COP(=O)(c1ccccc1)c1ccccc1"
  Experimental System: "Caspase-3 (Homo sapiens)"
  Ratio: "149000 to 243000 M⁻¹ s⁻¹"
- Input Smiles: "C[C@H](NC(=O)C(=O)Nc1ccccc1Cl)C(=O)N[C@@H](CC(=O)O)C(=O)COC(=O)c1c(Cl)cccc1Cl"
  Experimental System: "Caspase-3 (Homo sapiens)"
  Ratio: "323000 to 842000 M⁻¹ s⁻¹"
- Input Smiles: "C[C@H](NC(=O)C(=O)Nc1ccccc1C(C)(C)C)C(=O)N[C@@H](CC(=O)O)C(=O)COP(=O)(c1ccccc1)c1ccccc1"
  Experimental System: "Caspase-3 (Homo sapiens)"
  Ratio: "327000 to 395000 M⁻¹ s⁻¹"
- Input Smiles: "C[C@H](NC(=O)C(=O)Nc1ccccc1C(C)(C)C)C(=O)N[C@@H](CC(=O)O)C(=O)COC(=O)c1c(Cl)cccc1Cl"
  Experimental System: "Caspase-3 (Homo sapiens)"
  Ratio: "62900 to 142000 M⁻¹ s⁻¹"
- Input Smiles: "C[C@H](NC(=O)C(=O)Nc1ccccc1Cl)C(=O)N[C@@H](CC(=O)O)C(=O)COP(=O)(c1ccccc1)c1ccccc1"
  Experimental System: "Caspase-3 (Homo sapiens)"
  Ratio: "162000 to 564000 M⁻¹ s⁻¹"
- Input Smiles: "C[C@H](NC(=O)C(=O)Nc1cccc2c1CCCC2)C(=O)N[C@@H](CC(=O)O)C(=O)COC(=O)c1c(Cl)cccc1Cl"
  Experimental System: "Caspase-3 (Homo sapiens)"
  Ratio: "149000 to 260000 M⁻¹ s⁻¹"
